Below: a set of entries, each annotated with reported pIC50.
biological target: HLA DQ molecule DQB1*0602 (human); assay: inhibition of radiolabeled peptide binding to purified HLA class II
pIC50: −log10 of the molar value.
Experimental Readout: pIC50

INSERT INTO results (binder, reported_value) VALUES
  ('NALSVLDKIYTSPLC [Fel d 1 1 (78-92) peptide NALSVLDKIYTSPLC, Peptide ID 3324.1050]', 6.00),
  ('GSCWAFSGVAATESA [Der f 1 (131-145) peptide GSCWAFSGVAATESA, Peptide ID 3324.0670]', 5.87),
  ('AIVYYSMYGHIKKMA [Alt a 7 (6-20) peptide AIVYYSMYGHIKKMA, Peptide ID 3324.0085]', 5.47),
  ('DEYVEQVAQYKALPV [Fel d 1 1 (41-55) peptide DEYVEQVAQYKALPV, Peptide ID 3324.1049]', 6.85),
  ('PAVKYIEPDMIVNAT [Pen ch 13 (101-115) peptide PAVKYIEPDMIVNAT, Peptide ID 3324.1304]', 6.26),
  ('QVAQYKALPVVLENA [Fel d 1 1 (46-60) peptide QVAQYKALPVVLENA, Peptide ID 3324.1051]', 5.80),
  ('FSGVAATESAYLAYR [Der f 1 (136-150) peptide FSGVAATESAYLAYR, Peptide ID 3324.0666]', 5.70);

// data source = patent US20150004189A1
